Catalogue of pIC50 values
target: Nitric oxide synthase 1 (Rattus norvegicus, UniProt P29476); assay: In vitro inhibitory concentration against rat cerebellar neuronal nitric oxide synthase
Sequence (P29476 whole entry): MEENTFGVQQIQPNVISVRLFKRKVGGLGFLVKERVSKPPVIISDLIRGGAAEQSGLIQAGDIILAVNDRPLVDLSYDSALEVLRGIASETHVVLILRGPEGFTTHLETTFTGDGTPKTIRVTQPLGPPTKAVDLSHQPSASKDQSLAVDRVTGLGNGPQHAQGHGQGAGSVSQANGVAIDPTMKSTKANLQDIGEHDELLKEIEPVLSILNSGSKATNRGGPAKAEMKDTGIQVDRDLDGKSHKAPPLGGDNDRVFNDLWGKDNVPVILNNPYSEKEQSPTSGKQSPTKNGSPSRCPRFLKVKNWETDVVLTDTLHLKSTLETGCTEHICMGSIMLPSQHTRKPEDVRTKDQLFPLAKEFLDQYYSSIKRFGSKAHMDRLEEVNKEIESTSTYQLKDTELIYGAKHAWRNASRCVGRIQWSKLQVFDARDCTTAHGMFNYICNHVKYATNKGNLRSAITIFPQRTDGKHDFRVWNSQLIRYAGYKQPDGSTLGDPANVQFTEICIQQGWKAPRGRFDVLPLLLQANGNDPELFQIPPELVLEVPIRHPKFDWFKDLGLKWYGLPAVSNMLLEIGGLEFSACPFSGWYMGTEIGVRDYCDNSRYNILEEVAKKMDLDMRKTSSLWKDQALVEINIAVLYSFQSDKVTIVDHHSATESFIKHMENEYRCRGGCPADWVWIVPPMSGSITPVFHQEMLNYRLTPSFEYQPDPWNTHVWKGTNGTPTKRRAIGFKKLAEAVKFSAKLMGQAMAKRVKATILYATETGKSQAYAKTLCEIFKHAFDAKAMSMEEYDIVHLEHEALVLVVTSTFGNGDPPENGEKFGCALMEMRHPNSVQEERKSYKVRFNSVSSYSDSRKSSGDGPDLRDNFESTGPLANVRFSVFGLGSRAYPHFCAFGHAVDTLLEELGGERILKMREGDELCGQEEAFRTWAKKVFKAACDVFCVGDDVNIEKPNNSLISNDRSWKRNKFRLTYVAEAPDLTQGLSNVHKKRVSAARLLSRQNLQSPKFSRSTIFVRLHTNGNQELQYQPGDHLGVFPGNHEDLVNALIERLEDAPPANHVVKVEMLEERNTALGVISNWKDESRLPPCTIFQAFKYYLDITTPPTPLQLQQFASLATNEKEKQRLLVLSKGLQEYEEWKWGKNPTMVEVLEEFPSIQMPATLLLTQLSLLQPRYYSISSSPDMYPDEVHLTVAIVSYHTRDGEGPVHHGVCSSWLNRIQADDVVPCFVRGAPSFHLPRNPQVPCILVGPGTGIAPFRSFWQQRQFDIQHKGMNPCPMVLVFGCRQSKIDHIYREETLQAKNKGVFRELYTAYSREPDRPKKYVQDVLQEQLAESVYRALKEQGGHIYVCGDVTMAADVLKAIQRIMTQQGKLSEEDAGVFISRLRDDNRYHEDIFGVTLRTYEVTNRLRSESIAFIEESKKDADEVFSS
Scale explanation: pIC50 corresponds to minus log10 of a concentration expressed in moles per litre.

Example cases with answers are listed next.
COc1cccc2c[nH]nc12; 5.20
Brc1ccc2[nH]ncc2c1; 4.12
CCOc1cccc2c[nH]nc12; 4.00

Q) What measured pIC50 goes with FC(F)(F)c1ccccc1-n1ccnc1 ?
A) 4.52

Q) What measured pIC50 goes with Clc1ccc2cn[nH]c2c1 ?
A) 4.55

This collection of values is drawn from ChEMBL document CHEMBL1134250.
